- Assay Notes: Organ distribution of regorafenib in rats with or without RT
- Type: in vivo, Sprague-Dawley rats
- Experimental Setup: male, Sprague-Dawley, rat, liver, oral, 16 mg/kg, rat, 4 h after oral administration; RT2 Gy × 1 f'x with regorafenib 16 mg/kg × 1 d (concurrent); read-out: Concentration in liver
Result Type: concentration at 4 h (ng/g)
Provide only the numeric value, understood in ng/g.

I have this compound here, "CNC(=O)c1cc(Oc2ccc(NC(=O)Nc3ccc(Cl)c(C(F)(F)F)c3)c(F)c2)ccn1" , and I need its recorded concentration at 4 h.
1100

====

- Assay Notes: Organ distribution of regorafenib in rats with or without RT
- Assay type: in vivo, Sprague-Dawley rats
- Experimental Setup: male, Sprague-Dawley, rat, heart, oral, 16 mg/kg, rat, 4 h after oral administration; RT9 Gy × 1 f'x followed by regorafenib 16 mg/kg × 1 d (sequential); read-out: Concentration in heart
Result Type: concentration at 4 h (ng/g)
Quick note: give the figure in ng/g, leave out the unit.

So what's the measured concentration at 4 h for this one? CNC(=O)c1cc(Oc2ccc(NC(=O)Nc3ccc(Cl)c(C(F)(F)F)c3)c(F)c2)ccn1 [regorafenib, Regorafenib]
870
